// values below are reported IC50
- assay-target: Cx43 HCs (Homo sapiens)
- Construct: expressed in transfected cells
- Sequence (P17302 whole entry): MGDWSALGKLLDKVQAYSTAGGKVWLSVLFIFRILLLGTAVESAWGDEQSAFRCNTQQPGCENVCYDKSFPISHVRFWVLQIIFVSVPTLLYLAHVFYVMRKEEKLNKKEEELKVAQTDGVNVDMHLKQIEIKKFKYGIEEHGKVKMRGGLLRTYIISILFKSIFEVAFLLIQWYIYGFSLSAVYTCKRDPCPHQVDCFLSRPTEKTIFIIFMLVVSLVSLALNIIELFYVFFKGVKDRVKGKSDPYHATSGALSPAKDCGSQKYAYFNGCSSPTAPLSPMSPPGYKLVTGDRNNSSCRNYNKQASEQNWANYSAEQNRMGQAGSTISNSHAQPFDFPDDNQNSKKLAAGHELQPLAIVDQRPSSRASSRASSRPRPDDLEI
- experiment-description: Cx43-dependent growth complementation assay in E. coli LB2003
- Type: cell-based
- test-settings: the 24th table; read-out: Cx43 IC50
Quick reminder: number only, in µM, skip the unit.

stdin: Query (molecule): Cc1ccc(OC[C@H]2OC(OC3C(N)CC(N)C(O[C@H]4OC(CN)[C@@H](O)C(O)C4O)[C@@H]3O)[C@H](O)C(N)C2O)cc1 (some centres unmarked) ; field requested: IC50
stdout: 7.1

stdin: Could you share which IC50 value was measured for NCC1O[C@H](OC2C(N)CC(N)C(OC3O[C@H](COc4ccc(Cl)cc4)C(O)C(N)[C@H]3O)[C@H]2O)C(O)C(O)[C@@H]1O (some centres unmarked) ?
stdout: 8.9
